Just for reference, patent US20230212222A1 is where these values come from.

Square brackets hold non-standard residues; d marks the D form. Peptide text beside a SMILES is read from it. * marks the point of attachment. His(Trt) = N[C@@H](Cc1cn(C(c2ccccc2)(c2ccccc2)c2ccccc2)cn1)C(=O)O; dHis(Trt) = N[C@H](Cc1cn(C(c2ccccc2)(c2ccccc2)c2ccccc2)cn1)C(=O)O; Biotin = O=C1N[C@H]2[C@H](CS[C@H]2CCCCC(=O)*)N1; Bip = N[C@@H](Cc1ccc(-c2ccccc2)cc1)C(=O)O; Octanoyl = CCCCCCCC(=O)*
Recorded below: ECmax (-fold induction over basal), system UniProtKB O43194.
Sequence (O43194 whole entry): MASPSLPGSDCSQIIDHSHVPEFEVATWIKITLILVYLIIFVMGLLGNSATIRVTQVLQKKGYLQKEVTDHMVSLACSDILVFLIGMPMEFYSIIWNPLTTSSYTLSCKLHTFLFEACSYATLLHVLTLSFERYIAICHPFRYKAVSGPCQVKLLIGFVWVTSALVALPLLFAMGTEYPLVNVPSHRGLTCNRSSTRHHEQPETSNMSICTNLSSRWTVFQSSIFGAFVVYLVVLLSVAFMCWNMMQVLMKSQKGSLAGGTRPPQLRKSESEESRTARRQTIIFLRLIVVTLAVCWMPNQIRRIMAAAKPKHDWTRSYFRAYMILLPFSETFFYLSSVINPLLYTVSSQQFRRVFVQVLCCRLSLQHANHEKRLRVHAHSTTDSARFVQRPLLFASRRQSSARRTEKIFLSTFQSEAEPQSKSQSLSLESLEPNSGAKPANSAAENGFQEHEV

| compound | studyTarget | ECmax (-fold induction over basal) |
| --- | --- | --- |
| CCCCCCCC(=O)NCCCC[C@H](NC(=O)[C@H](N)Cc1cn(C(c2ccccc2)(c2ccccc2)c2ccccc2)cn1)C(=O)N[C@@H](Cc1ccccc1)C(=O)N[C@@H](Cc1ccc(O)cc1)C(=O)O [HKFY-4] (H-[dHis(Trt)]K(Octanoyl)FY-OH) | UniProtKB O43194 | 16.8 ± 1.87 -fold induction over basal |
| CCCCCCCC(=O)NCCCC[C@H](NC(=O)[C@@H](N)Cc1c[nH]c(-c2cccs2)n1)C(=O)N[C@H](Cc1ccc(C)cc1)C(=O)N[C@@H](Cc1ccc(O)cc1)C(=O)O [HKFY-63] | UniProtKB O43194 | 13.5 ± 1.8 -fold induction over basal |
| CCCCCCCC(=O)NCCCC[C@H](NC(=O)[C@H](Cc1cn(C(c2ccccc2)(c2ccccc2)c2ccccc2)cn1)NC(=O)CCCC[C@@H]1SC[C@@H]2NC(=O)N[C@@H]21)C(=O)N[C@@H](Cc1ccc(-c2ccccc2)cc1)C(=O)N[C@@H](Cc1ccc(O)cc1)C(=O)O [HKFY-45] (Biotin-[His(Trt)]K(Octanoyl)[Bip]Y-OH) | UniProtKB O43194 | 21 ± 2.58 -fold induction over basal |
| CCCCCCCC(=O)NCCCC[C@H](NC(=O)[C@@H](N)Cc1cn(C(c2ccccc2)(c2ccccc2)c2ccccc2)cn1)C(=O)N[C@@H](CC(C)C)C(=O)N[C@@H](Cc1ccc(O)cc1)C(=O)O [HKFY-51] (H-[His(Trt)]K(Octanoyl)LY-OH) | UniProtKB O43194 | 14.4 ± 1.9 -fold induction over basal |
